- Test system: HEK-293T
- assayNotes: Incucyte cell viability with HEK293T; also: unitless GR value; below 1 slowed growth and below 0 cell loss
- Type: toxicity, cell-based
- statedConditions: human, 18 h, 10 µM, compound concentration 10 uM, replicate number 2

[
  {
    "compound": "CN(C)c1cc2c(Nc3ccc4c(cnn4Cc4ccccc4)c3)ncnc2cn1 [GW282974X]",
    "Growth Rate": 0.77
  },
  {
    "compound": "C[C@H](CCC(=O)O)[C@H]1CC[C@H]2[C@@H]3CC[C@@H]4C[C@H](O)CC[C@]4(C)[C@H]3CC[C@]12C",
    "Growth Rate": 0.77
  },
  {
    "compound": "COc1cc2c(cc1CC=C(C)C)C(=O)C[C@@H](c1ccc(O)cc1)O2",
    "Growth Rate": 0.89
  },
  {
    "compound": "COc1cc2ncnc(Nc3cccc(O)c3)c2cc1OC",
    "Growth Rate": 0.75
  },
  {
    "compound": "CCS(=O)(=O)Nc1cccc(Oc2cc(F)cc(Nc3ccc(I)cc3F)c2NS(=O)(=O)C2CC2)c1",
    "Growth Rate": 0.5
  },
  {
    "compound": "O=C(CCCCCCc1ccccc1)c1ncc(-c2ccccn2)o1",
    "Growth Rate": 0.88
  },
  {
    "compound": "CCN1/C(=C/C(C)=O)Sc2ccc(OC(C)=O)cc21",
    "Growth Rate": 0.66
  }
]

====

The entries below come with measured Growth Rate values attached.
- Tested on: U2OS
- assayNotes: Incucyte cell viability with U2OS; also: unitless GR value; below 1 slowed growth and below 0 cell loss
- Assay type: toxicity, cell-based
- statedConditions: human, 18 h, 10 µM, compound concentration 10 uM, replicate number 2

[
  {
    "compound": "C=C(C)[C@H]1CN[C@H](C(=O)O)[C@H]1CC(=O)O [KAINIC ACID]",
    "Growth Rate": 0.9
  },
  {
    "compound": "CCOc1ccc(S(=O)(=O)Nc2ccc(Cl)cc2C#Cc2cnc(C(=O)[O-])cc2OC)c2ncccc12.[K+]",
    "Growth Rate": -0.85
  },
  {
    "compound": "Cc1ccc(S(=O)(=O)O)cc1.Cn1cc(Nc2nccc(N3CC4CCC(C3)N4C(=O)[C@@H]3CC3(F)F)n2)cn1",
    "Growth Rate": 0.84
  },
  {
    "compound": "Cn1c2ccccc2c2c3c(c4c5ccccc5n(CCC#N)c4c21)CNC3=O [GO-6976]",
    "Growth Rate": 0.63
  },
  {
    "compound": "Cc1cc(OCCC(C)(C)O)cc(C)c1-c1ccc(F)c2c1CC[C@H]2Oc1ccc2c(c1)OC[C@H]2CC(=O)O",
    "Growth Rate": 0.88
  },
  {
    "compound": "Nc1ncnc2c1ccn2[C@@H]1O[C@H]([C@@H](O)c2ccccc2)[C@@H](O)[C@H]1O",
    "Growth Rate": 0.91
  },
  {
    "compound": "CCc1nc(C2CCC2)n2nc(-c3ccccc3)[nH]c(=O)c12",
    "Growth Rate": 0.95
  },
  {
    "compound": "O=c1cc(-c2cc(F)c(Cl)nc2Cl)[nH]c2c(-c3ccccc3)c(C(F)(F)F)nn12",
    "Growth Rate": -0.41
  },
  {
    "compound": "O=C(O)Cc1cc(I)c(Oc2ccc(O)c(I)c2)c(I)c1 [TIRATRICOL]",
    "Growth Rate": 0.96
  },
  {
    "compound": "CCOC(=O)c1cc2cc(-c3cc(C(=O)NCc4ccc(C(=O)O)cc4)nn3C)ccc2[nH]1 [BI 4394]",
    "Growth Rate": 0.99
  },
  {
    "compound": "Cc1nc2cccnc2n2c(-c3cc(C(C)(C)O)ncc3Cl)nnc12",
    "Growth Rate": 0.95
  },
  {
    "compound": "O=c1[nH]c(CS[C@H]2CC[C@H](O)CC2)nc2cc(OCC3CC3)cc(F)c12",
    "Growth Rate": 0.66
  },
  {
    "compound": "C=CC(=O)Nc1cc(Nc2nccc(-n3cc(CN(C)C)c(-c4ccccc4)n3)n2)c(OC)cc1N1CCOCC1 [LAZERTINIB]",
    "Growth Rate": 0.96
  }
]

Recorded values, source ChEMBL document CHEMBL5303304.
